molecular target: trypsin-activated MMP-9 from THP-1 cells (MMP-9(T)) (Homo sapiens, UniProt P14780); construct: endogenous in cells; host or cells: THP-1 cells stimulated with PMA; assay: MMP-9(T) inhibition, continuous initial rate assay with McaPLGL(Dpa)AR-NH2 after 15 min preincubation; assay type: biochemical; conditions: bisphosphonates; substrate McaPLGL(Dpa)AR-NH2 4 µM; 4–6 experiments; read-out: Ki ± sd MMP-9(T)
Sequence (P14780 107-707 limits assumed): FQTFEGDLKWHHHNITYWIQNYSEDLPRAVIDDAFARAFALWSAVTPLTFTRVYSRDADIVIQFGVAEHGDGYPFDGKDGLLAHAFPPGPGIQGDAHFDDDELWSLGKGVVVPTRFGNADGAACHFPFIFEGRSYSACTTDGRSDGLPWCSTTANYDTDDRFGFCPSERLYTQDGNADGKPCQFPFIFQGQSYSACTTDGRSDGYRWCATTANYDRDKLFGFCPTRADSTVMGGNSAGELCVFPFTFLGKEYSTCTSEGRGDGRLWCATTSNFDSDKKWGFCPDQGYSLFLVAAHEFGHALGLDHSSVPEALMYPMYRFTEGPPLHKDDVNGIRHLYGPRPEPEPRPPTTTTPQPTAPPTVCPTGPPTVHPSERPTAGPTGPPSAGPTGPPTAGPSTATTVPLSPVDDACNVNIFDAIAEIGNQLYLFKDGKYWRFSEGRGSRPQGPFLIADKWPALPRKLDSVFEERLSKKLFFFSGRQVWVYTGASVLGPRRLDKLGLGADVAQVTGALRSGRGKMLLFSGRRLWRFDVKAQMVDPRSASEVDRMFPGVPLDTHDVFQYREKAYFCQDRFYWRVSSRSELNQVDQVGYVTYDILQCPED
Reported metric: Ki (µM)
The answer is to be given in µM; state only the numeric part.

# lookup: O=P(O)(O)C(Nc1ccc(-c2ccccc2)cc1)P(=O)(O)O on trypsin-activated MMP-9 from THP-1 cells (MMP-9(T)) (Homo sapiens, UniProt P14780), Ki = 6.6

====

Reported pKi values for a set of compounds
target: thermolysin (TLN) (Bacillus thermoproteolyticus); construct: purchased Calbiochem (San Diego, CA, USA); assay: TLN inhibition, continuous initial rate assay with McaRPPGFSAFK(Dnp)-OH after 15 min preincubation; format: biochemical; conditions: catechol compounds; substrate McaRPPGFSAFK(Dnp)-OH 4 µM; Ki from IC50, substrate competitive; 4–6 experiments; read-out: Ki ± sd TLN
Sequence (P00800 233-548): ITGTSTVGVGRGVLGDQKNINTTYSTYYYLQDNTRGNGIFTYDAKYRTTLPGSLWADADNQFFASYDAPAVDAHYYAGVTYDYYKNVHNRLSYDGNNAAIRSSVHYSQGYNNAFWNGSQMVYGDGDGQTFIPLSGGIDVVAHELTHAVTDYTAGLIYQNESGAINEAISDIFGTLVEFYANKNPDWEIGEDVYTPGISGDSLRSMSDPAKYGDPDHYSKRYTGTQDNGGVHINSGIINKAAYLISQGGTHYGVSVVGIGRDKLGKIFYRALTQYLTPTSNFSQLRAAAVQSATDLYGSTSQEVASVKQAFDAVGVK
API: returns pKi as number; meaning -log10 of concentration in mol/L.

>>> print(df.to_string())
                            chemical_string  observed_measurement
0  O=S(=O)(Nc1ccc(O)c(O)c1)c1ccc(-c2ccccc2)cc1                  4.89

The value of pKi measured for the compound O=S(=O)(Nc1ccc(O)c(O)c1)c1ccc(Br)cc1 turned out to be 4.85

====

target: trypsin-activated MMP-9 from THP-1 cells (MMP-9(T)) (Homo sapiens, UniProt P14780); construct: endogenous in cells; host or cells: THP-1 cells stimulated with PMA; test: MMP-9(T) inhibition, continuous initial rate assay with McaPLGL(Dpa)AR-NH2 after 15 min preincubation; format: biochemical; conditions: catechol compounds; substrate McaPLGL(Dpa)AR-NH2 4 µM; Ki from IC50, substrate competitive; 4–6 experiments; read-out: Ki ± sd MMP-9(T)
Reported metric: pKi
Friendly reminder that pKi comes from taking -log10 of the concentration in mol/L.

                            chemical_string                           measured_target  observed_measurement
0  O=S(=O)(Nc1cccc(O)c1O)c1ccc(-c2ccccc2)cc1  trypsin-activated MMP-9 from THP-1 cells (MMP-9(T)) (Homo sapiens, UniProt P14780)                  4.29

According to the records, this compound O=S(=O)(Nc1ccc(O)c(O)c1)c1ccc(Br)cc1 displays pKi of 4.90

Noted for O=C(NCc1ccc(-c2ccccc2)cc1)c1cccc(O)c1O : its pKi reads 4.89

Record O=S(=O)(Nc1ccc(O)c(O)c1)c1ccc(-c2ccccc2)cc1 . Reported pKi: 4.89

====

molecular target: UniProt P81177
Sequence (P81177 209-509): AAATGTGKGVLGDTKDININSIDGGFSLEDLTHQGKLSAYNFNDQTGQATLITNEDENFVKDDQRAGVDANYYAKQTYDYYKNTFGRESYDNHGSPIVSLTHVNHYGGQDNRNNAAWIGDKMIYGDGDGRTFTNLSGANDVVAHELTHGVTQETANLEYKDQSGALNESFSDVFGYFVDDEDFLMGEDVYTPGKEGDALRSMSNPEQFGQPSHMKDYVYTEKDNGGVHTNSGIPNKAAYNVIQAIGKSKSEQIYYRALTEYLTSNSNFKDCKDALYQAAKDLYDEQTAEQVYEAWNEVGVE
Reported metric: Ki (µM)
Give the quantity in µM, number only.

Reported Ki of O=S(=O)(Nc1ccc(O)c(O)c1)c1ccc(-c2ccccc2)cc1 [BF471] : 49

====

target: thermolysin (TLN) (Bacillus thermoproteolyticus); construct: purchased Calbiochem (San Diego, CA, USA); assay: TLN inhibition, continuous initial rate assay with McaRPPGFSAFK(Dnp)-OH after 15 min preincubation; assay type: biochemical; details: bisphosphonates; substrate McaRPPGFSAFK(Dnp)-OH 4 µM; 4–6 experiments; read-out: Ki ± sd TLN
Reported metric: pKi
// pKi: -log10(molar conc.)

>>> df
                            chemical_string  reported_metric  observed_measurement
0  O=P(O)(O)C(Nc1ccc(-c2ccccc2)cc1)P(=O)(O)O              pKi                  5.15

# evaluate next
Record summary for O=[N+]([O-])c1ccc(S(=O)(=O)NC(P(=O)(O)O)P(=O)(O)O)cc1 : reported pKi = 4.79

====

Known Ki of a selection of compounds
target: pseudolysin (PLN) (Pseudomonas aeruginosa); experiment: PLN inhibition, continuous initial rate assay with McaRPPGFSAFK(Dnp)-OH after 15 min preincubation
Sequence (P14756 198-498): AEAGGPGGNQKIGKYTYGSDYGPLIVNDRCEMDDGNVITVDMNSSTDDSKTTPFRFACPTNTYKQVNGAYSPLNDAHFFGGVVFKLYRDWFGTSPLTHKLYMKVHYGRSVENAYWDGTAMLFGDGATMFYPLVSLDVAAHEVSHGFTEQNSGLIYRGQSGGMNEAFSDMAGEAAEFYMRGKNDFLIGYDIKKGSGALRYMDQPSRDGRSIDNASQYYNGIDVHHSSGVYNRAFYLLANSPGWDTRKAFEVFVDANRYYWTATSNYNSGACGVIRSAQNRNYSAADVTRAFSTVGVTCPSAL
Report the figure in µM without appending any unit label.

The compound O=[N+]([O-])c1ccc(S(=O)(=O)NC(P(=O)(O)O)P(=O)(O)O)cc1 showed Ki equal to 22

Lab note: O=P(O)(O)C(Nc1ccc(-c2ccccc2)cc1)P(=O)(O)O gave Ki of 12

Input O=S(=O)(Nc1cccc(O)c1O)c1ccc(-c2ccccc2)cc1 . Output Ki: 38

Record COc1ccc(S(=O)(=O)NC(P(=O)(O)O)P(=O)(O)O)cc1 , field Ki: 58

Item: O=P(O)(O)C(Nc1ccc(Cl)cc1)P(=O)(O)O | Ki: 37

So for O=S(=O)(Nc1ccc(O)c(O)c1)c1ccc(Br)cc1 , the logged Ki turned out to be 16

# Ki of O=S(=O)(Nc1ccc(O)c(O)c1)c1ccc(-c2ccccc2)cc1 = 9
